From: ChEMBL document CHEMBL4680181

molecular target: hERG (KCNH2) (Homo sapiens, UniProt Q12809); experiment: Inhibition of human ERG at 10 uM by fluorescence polarization assay relative to control
Sequence (Q12809 whole entry): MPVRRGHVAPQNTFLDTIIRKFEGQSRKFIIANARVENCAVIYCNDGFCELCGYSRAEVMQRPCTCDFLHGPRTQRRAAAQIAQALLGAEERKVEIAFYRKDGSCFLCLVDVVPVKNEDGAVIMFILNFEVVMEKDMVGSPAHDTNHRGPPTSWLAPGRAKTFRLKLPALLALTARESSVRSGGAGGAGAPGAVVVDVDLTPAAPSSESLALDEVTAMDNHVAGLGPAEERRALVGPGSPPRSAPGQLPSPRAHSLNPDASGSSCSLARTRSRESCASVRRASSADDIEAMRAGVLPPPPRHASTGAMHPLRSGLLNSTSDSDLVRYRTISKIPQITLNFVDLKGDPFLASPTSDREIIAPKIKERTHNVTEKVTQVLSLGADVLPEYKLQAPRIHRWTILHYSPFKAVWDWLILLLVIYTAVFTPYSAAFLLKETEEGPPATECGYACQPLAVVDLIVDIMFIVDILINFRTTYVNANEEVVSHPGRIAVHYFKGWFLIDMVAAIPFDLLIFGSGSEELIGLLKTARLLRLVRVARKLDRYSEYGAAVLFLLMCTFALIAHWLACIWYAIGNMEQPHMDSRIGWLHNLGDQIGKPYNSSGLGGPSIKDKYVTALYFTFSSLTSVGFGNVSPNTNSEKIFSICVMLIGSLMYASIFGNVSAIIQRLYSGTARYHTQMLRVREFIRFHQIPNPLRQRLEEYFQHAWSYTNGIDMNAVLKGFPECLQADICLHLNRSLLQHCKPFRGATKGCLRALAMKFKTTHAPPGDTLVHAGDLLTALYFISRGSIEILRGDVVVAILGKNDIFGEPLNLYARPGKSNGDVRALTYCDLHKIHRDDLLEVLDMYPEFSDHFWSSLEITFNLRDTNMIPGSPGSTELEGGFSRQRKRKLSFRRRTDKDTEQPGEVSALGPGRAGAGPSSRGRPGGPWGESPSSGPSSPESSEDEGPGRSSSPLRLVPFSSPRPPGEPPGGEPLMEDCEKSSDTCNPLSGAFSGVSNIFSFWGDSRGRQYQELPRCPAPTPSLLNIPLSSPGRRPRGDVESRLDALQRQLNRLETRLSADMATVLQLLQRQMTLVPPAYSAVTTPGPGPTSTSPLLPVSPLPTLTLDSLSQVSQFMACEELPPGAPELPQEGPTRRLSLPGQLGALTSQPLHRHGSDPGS
Measured inhibition at 10 µM values are reported for all entries that follow.

| compound-structure | inhibition at 10 µM |
| --- | --- |
| Nc1cc(OCc2ccccc2)nc(N)n1 | < 30% |
| Nc1cc(NCc2ccccc2)nc(N)n1 | > 50% |
| Nc1nc(NCc2ccccc2)cc(NCc2ccccc2)n1 | > 50% |
| Nc1cc(NCc2ccc(F)cc2)nc(N)n1 | > 50% |

----------
experiment: Inhibition of Trypanosoma brucei PTR1 using H2B as substrate preincubated for 10 mins followed by NADPH addition and measured up to 50 mins relative to control; conditions: read-out: Ki
Flag rule - Ki less than 0.8 µM flags Criterion met; the remaining entries get Criterion not met.

| compound-structure | class-label |
| --- | --- |
| COc1ccccc1CNCc1ccc(CNCCCCCCCCCCCCNCc2ccc(CNCc3ccccc3OC)cc2)cc1 | Criterion met |
| O=C1CCCCCNCc2ccc(cc2)-c2ccc(cc2)CNCCCCCC(=O)N(Cc2ccccc2)CCCCCCCCN1Cc1ccccc1 | Criterion not met |
| Nc1cc(OCc2ccccc2)nc(N)n1 | Criterion met |
| Nc1cc(NCc2ccc(-c3ccccc3)cc2)nc(N)n1 | Criterion met |
| O=C1CCCCCNCc2ccc(cc2)Cc2ccc(cc2)CNCCCCCC(=O)N(Cc2ccccc2)CCCCCCCCN1Cc1ccccc1 | Criterion not met |
| Cn1cnc2c(N)nc(CCc3ccccc3)nc21 | Criterion not met |
| O=C1CCCCCNCc2ccc(cc2)CNCCCCCC(=O)N(Cc2ccccc2)CCCCCCCCN1Cc1ccccc1 | Criterion not met |
| Cl.Fc1ccc(N(CCNCCCc2ccccc2)c2ccc(F)cc2)cc1 | Criterion not met |
| NCCCCCCN1CC[C@H]2COc3ccccc3[C@H]21 | Criterion not met |

----------
Sequence of the target: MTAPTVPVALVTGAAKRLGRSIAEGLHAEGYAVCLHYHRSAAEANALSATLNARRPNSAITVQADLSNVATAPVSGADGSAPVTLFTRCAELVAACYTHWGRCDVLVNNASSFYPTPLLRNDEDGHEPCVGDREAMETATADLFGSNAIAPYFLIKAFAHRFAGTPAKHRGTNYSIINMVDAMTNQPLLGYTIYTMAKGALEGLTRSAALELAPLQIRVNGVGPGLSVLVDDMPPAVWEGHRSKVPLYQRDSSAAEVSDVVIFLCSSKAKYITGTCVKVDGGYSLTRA
pKi: −log10 of the molar value.
property: pKi

| compound-structure | value-measured |
| --- | --- |
| O=C1CCCCCNCc2ccc(cc2)CNCCCCCC(=O)N(Cc2ccccc2)CCCCCCCCN1Cc1ccccc1 | < 4.00 |
| Nc1nc(NCc2ccccc2)cc(NCc2ccccc2)n1 | < 4.00 |
| COc1ccccc1CNCc1ccc(CNCCCCCCCCCCCCNCc2ccc(CNCc3ccccc3OC)cc2)cc1 | 4.43 |
| COc1ccc(COc2cc(N)nc(N)n2)cc1 | < 4.00 |
| Oc1ccc(-c2ccc(-c3cc(O)cc(O)c3)c(-c3ccccc3)c2)cc1 | 5.24 |
| Nc1cc(NCc2ccc(F)cc2)nc(N)n1 | < 4.00 |
| O=C1CCCCCNCc2ccc(cc2)-c2ccc(cc2)CNCCCCCC(=O)N(Cc2ccccc2)CCCCCCCCN1Cc1ccccc1 | 4.72 |
| Cl.Fc1ccc(N(CCNCCCc2ccccc2)c2ccc(F)cc2)cc1 | < 4.00 |

----------
system: Trypanosoma brucei brucei; test: Antitrypanosomal activity against bloodstream form of trypanosoma brucei brucei 427 assessed as reduction in parasitic growth after 72 hrs by resazurin staining based fluorescence assay; assay type: functional, organism-based; conditions: Trypanosoma brucei, 427, 72 h; read-out: IC50
Listed compounds paired with reported IC50
property: IC50 (nM)

| compound-structure | property | value-measured |
| --- | --- | --- |
| COc1ccccc1CNCc1ccc(CNCCCCCCCCCCCCNCc2ccc(CNCc3ccccc3OC)cc2)cc1 | IC50 | 270 |
| Nc1cc(NCc2ccc(-c3ccccc3)cc2)nc(N)n1 | IC50 | 3700 |
| O=C1CCCCCNCc2ccc(cc2)-c2ccc(cc2)CNCCCCCC(=O)N(Cc2ccccc2)CCCCCCCCN1Cc1ccccc1 | IC50 | 560 |
| O=C1CCCCCNCc2ccc(cc2)CNCCCCCC(=O)N(Cc2ccccc2)CCCCCCCCN1Cc1ccccc1 | IC50 | 610 |
| Cl.Fc1ccc(N(CCNCCCc2ccccc2)c2ccc(F)cc2)cc1 | IC50 | 2450 |
| O=C1CCCCCNCc2ccc(cc2)Cc2ccc(cc2)CNCCCCCC(=O)N(Cc2ccccc2)CCCCCCCCN1Cc1ccccc1 | IC50 | 580 |

----------
In this section, each of the compounds is paired with its reported Ki.
test: Inhibition of Trypanosoma brucei PTR1 using H2B as substrate preincubated for 10 mins followed by NADPH addition and measured up to 50 mins relative to control; details: read-out: Ki
property: Ki (µM)

| compound-structure | property | qualifier | value-measured |
| --- | --- | --- | --- |
| Oc1ccc(-c2ccc(-c3cc(O)cc(O)c3)c(-c3ccccc3)c2)cc1 | Ki | > | 100 |
| Nc1cc(NCc2ccc(F)cc2)nc(N)n1 | Ki | = | 1.1 |
| Nc1cc(NCc2ccccc2)nc(N)n1 | Ki | = | 3.4 |

----------
Listed below: CC50 values for each entry.
assay: Cytotoxicity against human THP-1 cells assessed as reduction in cell viability by MTT assay; assay type: cell-based
property: CC50

| compound-structure | value-measured |
| --- | --- |
| Nc1cc(OCc2ccccc2)nc(N)n1 | > 60 µM |
| Nc1cc(NCc2ccc(-c3ccccc3)cc2)nc(N)n1 | < 25 µM |

----------
system: Trypanosoma brucei; assay: Inhibition of Trypanosoma brucei PTR1 at 50 uM using H2B as substrate preincubated for 10 mins followed by NADPH addition and measured up to 50 mins relative to control; conditions: time min <=60

| compound-structure | inhibition |
| --- | --- |
| Nc1cc(OCc2ccccc2)nc(N)n1 | > 85% |
| O=C1CCCCCNCc2ccc(cc2)CNCCCCCC(=O)N(Cc2ccccc2)CCCCCCCCN1Cc1ccccc1 | > 85% |
| Cl.Fc1ccc(N(CCNCCCc2ccccc2)c2ccc(F)cc2)cc1 | > 85% |
| COc1ccccc1CNCc1ccc(CNCCCCCCCCCCCCNCc2ccc(CNCc3ccccc3OC)cc2)cc1 | > 85% |
| Cn1cnc2c(N)nc(CCc3ccccc3)nc21 | > 85% |
| O=C1CCCCCNCc2ccc(cc2)-c2ccc(cc2)CNCCCCCC(=O)N(Cc2ccccc2)CCCCCCCCN1Cc1ccccc1 | > 85% |
| O=C1CCCCCNCc2ccc(cc2)Cc2ccc(cc2)CNCCCCCC(=O)N(Cc2ccccc2)CCCCCCCCN1Cc1ccccc1 | > 85% |
| NCCCCCCN1CC[C@H]2COc3ccccc3[C@H]21 | > 85% |
| Oc1ccc(-c2ccc(-c3cc(O)cc(O)c3)c(-c3ccccc3)c2)cc1 | > 85% |

----------
target: UniProtKB P10635; assay: Inhibition of CYP2D6 (unknown origin) at 10 uM by P450-Glo assay relative to control; type: ADME
Sequence (P10635 whole entry): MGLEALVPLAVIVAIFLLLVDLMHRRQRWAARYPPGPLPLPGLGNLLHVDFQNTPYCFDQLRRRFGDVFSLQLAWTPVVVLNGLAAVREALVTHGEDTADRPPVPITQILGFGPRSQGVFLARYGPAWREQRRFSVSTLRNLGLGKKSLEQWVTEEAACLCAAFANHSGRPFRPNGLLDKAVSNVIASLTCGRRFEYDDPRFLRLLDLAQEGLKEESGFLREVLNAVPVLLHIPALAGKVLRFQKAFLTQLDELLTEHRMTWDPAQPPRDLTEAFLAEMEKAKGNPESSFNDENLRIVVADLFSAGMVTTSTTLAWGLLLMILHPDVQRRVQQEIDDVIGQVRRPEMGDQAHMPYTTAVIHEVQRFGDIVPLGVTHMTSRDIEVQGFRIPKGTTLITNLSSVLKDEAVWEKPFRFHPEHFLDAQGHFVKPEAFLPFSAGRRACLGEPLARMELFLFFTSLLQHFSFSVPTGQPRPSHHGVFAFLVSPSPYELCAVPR
inhibition at 10 µM values for the molecules below.

| compound-structure | qualifier | inhibition at 10 µM, % |
| --- | --- | --- |
| Nc1cc(OCc2ccccc2)nc(N)n1 | < | 30 |
| Nc1cc(NCc2ccc(F)cc2)nc(N)n1 | = | 30 |
| Nc1cc(NCc2ccccc2)nc(N)n1 | = | 30 |

----------
assay: Selectivity ratio Ki for inhibition of inhibition of Leishmania major PTR1 to Ki for inhibition of Trypanosoma brucei PTR1
property: Ratio Ki

| compound-structure | value-measured |
| --- | --- |
| COc1ccccc1CNCc1ccc(CNCCCCCCCCCCCCNCc2ccc(CNCc3ccccc3OC)cc2)cc1 | 186 |
| Nc1cc(OCc2ccccc2)nc(N)n1 | > 167 |
| NCCCCCCN1CC[C@H]2COc3ccccc3[C@H]21 | > 62.5 |
| Cl.Fc1ccc(N(CCNCCCc2ccccc2)c2ccc(F)cc2)cc1 | > 45 |
